Tested on: U2OS
Test: cell viability relative to DMSO; higher = less toxic
Settings: 72 h; 1 nM
test.readout: cell viability (%)

CCN(CC)CCNc1ccc(CO)c2sc3ccccc3c(=O)c12; 100
NCCc1ccc(O)c(O)c1; 101
CCCC(=O)Nc1ncnc2c1ncn2[C@@H]1O[C@@H]2COP(=O)(O)O[C@H]2[C@H]1OC(=O)CCC; 105
O=C(NCCCCN1CCN(c2cccc(Cl)c2Cl)CC1)c1ccc2c(c1)Cc1ccccc1-2; 93.5
Nc1nc(NC2CC2)cc(-c2cccc(Cl)c2Cl)n1; 96.3

====

Tested on: U2OS
Experiment: drug sensitivity score (DSS) for viability; higher = more toxic; extreme values may be limits of the assay
Details: 72 h
Where a name gives a salt, the structure may show the parent alone.
test.readout: drug sensitivity score

O=C(NCCO)c1cc(C(=O)NCCO)cc(C(=O)NCCO)c1; 0
CNC(=O)c1ccccc1Sc1ccc2c(/C=C/c3ccccn3)n[nH]c2c1; 0.8
CN1C(=O)N(c2ccc(C#N)c(C(F)(F)F)c2)C(=O)[C@]1(CO)c1ccccc1 [GLPG0492-R-enantiomer]; 0
CCC(=O)O[C@]1(C(=O)CCl)[C@@H](C)C[C@H]2[C@@H]3C[C@H](F)C4=CC(=O)C=C[C@]4(C)[C@@]3(F)[C@@H](O)C[C@@]21C [halobetasol-propionate]; 0
CC(C)Oc1ccc(-c2nc(-c3cccc4c3CC[C@@H]4NCCO)no2)cc1C#N; 1.5
COc1ccc(C(=O)N2CCCc3cc(C4=NNC(=O)SC4C)ccc32)cc1OC (stereo not given); 0
Cc1nc(Nc2ccc(F)cc2)nc(N2CCc3ccccc3C2C)c1C (stereo not given); 0.8
O=C(NC[C@H](O)CO)c1ccncc1Nc1ccc(I)cc1F; 5.2
CCCS(=O)(=O)Nc1ccc(F)c(C(=O)c2c[nH]c3ncc(-c4ccc(Cl)cc4)cc23)c1F; 0.1
c1ccc2nc(N3CCNCC3)ccc2c1; 0
COCC1(CO)C(=O)C2CCN1CC2 (stereo not given); 0
O=C(O)/C=C\c1c[nH]cn1 [cis-Urocanic acid]; 0
COc1cc(N2CCC(N(C)C)CC2)ccc1Nc1ncc(Cl)c(Nc2ccccc2P(C)(C)=O)n1; 8.2
CC(C)(C)C(=O)OCOC(=O)[C@@H]1N2C(=O)C[C@H]2S(=O)(=O)C1(C)C; 0
CN[C@H](CC(C)C)C(=O)N[C@H]1C(=O)N[C@@H](CC(N)=O)C(=O)N[C@H]2C(=O)N[C@H]3C(=O)N[C@H](C(=O)N[C@H](C(=O)O)c4cc(O)cc(O)c4-c4cc3ccc4O)[C@H](O)c3ccc(c(Cl)c3)Oc3cc2cc(c3O[C@@H]2O[C@H](CO)[C@@H](O)[C@H](O)[C@H]2O[C@H]2C[C@](C)(N)[C@H](O)[C@H](C)O2)Oc2ccc(cc2Cl)[C@H]1O [VANCOMYCIN HYDROCHLORIDE]; 0

====

System: U2OS
Assay: cell viability relative to DMSO; higher = less toxic
Conditions: 72 h; 100 nM
Here the recorded cell viability is given for each entry.
test.readout: cell viability

N#Cc1ccc2[nH]c(O)c(-c3ccc(CN4CCOCC4)cn3)c2c1 [AZD1080]; 95.8%
CC(C)Nc1nc2cc(Cl)c(Cl)cc2n1[C@H]1O[C@@H](CO)[C@H](O)[C@@H]1O [maribavir]; 92.1%
O=C(O)CCNc1cc(N2CCc3ccccc3CC2)nc(-c2cccnc2)n1 [GSK-J2]; 94.8%
O=[N+]([O-])c1cccc2c(Br)n[nH]c12 [3-bromo-7-nitroindazole]; 99%
CCNCCS(=O)(=O)NC[C@@]1(c2ccccc2)SC(NC(=O)C(C)(C)C)=NN1C(=O)C(C)(C)C [litronesib]; 58%
COc1ccc(C(=O)N2CCCc3cc(C4=NNC(=O)SC4C)ccc32)cc1OC (stereo unspecified); 103%
C[C@]12C=CC(=O)C=C1CC[C@@H]1[C@@H]2C(=O)C[C@@]2(C)[C@H]1CC[C@]2(O)C(=O)CO [prednisone]; 95.7%
c1ccc2nc(N3CCNCC3)ccc2c1 [quipazine]; 102%
COC(=O)C1=C(C#N)NC(C)=C(C(=O)OC(C)C)C1c1cccc([N+](=O)[O-])c1 (stereo unspecified) [nilvadipine]; 97%
O=c1[nH]c2ccccc2n1C1CCN(CCCC(c2ccc(F)cc2)c2ccc(F)cc2)CC1 [pimozide]; 99.5%
CC1(C)S[C@@H]2[C@H](NC(=O)COc3ccccc3)C(=O)N2[C@H]1C(=O)O [penicillin-v-potassium]; 99.8%
N[C@@H](C(=O)O)[C@@H](OCc1ccccc1)C(=O)O.N[C@H](C(=O)O)[C@H](OCc1ccccc1)C(=O)O [TBOA-(DL)]; 97.2%
NCCCC[C@H](NC(=O)[C@@H]1CCCN1C(=O)[C@@H]1CSSC[C@H](N)C(=O)N[C@@H](Cc2ccc(O)cc2)C(=O)N[C@@H](Cc2ccccc2)C(=O)N[C@@H](CCC(N)=O)C(=O)N[C@@H](CC(N)=O)C(=O)N1)C(=O)NCC(N)=O [lypressin]; 97.5%
CN(CCOc1ccc(NS(C)(=O)=O)cc1)CCc1ccc(NS(C)(=O)=O)cc1 [dofetilide]; 102%
S=C(S)OC1CC2CC1C1CCCC21 (stereo unspecified) [D609]; 96.3%
O=C(NNc1nc2cc(F)ccc2n2cccc12)c1cnccn1 [SC-144]; 91.8%
